target: Dual specificity protein kinase CLK4 (Homo sapiens) (UniProt Q9HAZ1); experiment: qHTS Assay for Inhibitors of CDC-like Kinase 4 (ADP-FP Assay) (AID 1795); conditions: Transcreener ADP fluorescence polarization; series mostly up to 50 µM; further: nearly all actives have a fitted effect of over 60% in size
Sequence (Q9HAZ1 whole entry, looked up): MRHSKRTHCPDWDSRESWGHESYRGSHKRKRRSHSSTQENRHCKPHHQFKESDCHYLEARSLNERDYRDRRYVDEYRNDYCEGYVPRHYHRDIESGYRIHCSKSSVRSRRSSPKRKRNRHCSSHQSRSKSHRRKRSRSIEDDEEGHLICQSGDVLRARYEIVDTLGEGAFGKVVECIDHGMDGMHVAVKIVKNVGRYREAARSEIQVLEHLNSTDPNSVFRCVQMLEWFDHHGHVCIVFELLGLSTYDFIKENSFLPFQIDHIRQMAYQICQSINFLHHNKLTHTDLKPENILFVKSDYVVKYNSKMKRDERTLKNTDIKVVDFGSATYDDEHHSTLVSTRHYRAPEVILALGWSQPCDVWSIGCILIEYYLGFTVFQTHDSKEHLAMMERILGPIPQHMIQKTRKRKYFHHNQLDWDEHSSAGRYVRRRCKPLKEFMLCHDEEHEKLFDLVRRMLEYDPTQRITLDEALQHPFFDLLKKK
Inconclusive results are not listed. Active and inactive are the calls of the source. The call rests on the fitted dose curve; in most records, active means well fitted inhibition curve with a large enough effect; inconclusive means small, poorly fitted or top-dose-only effect; inactive means flat fitted curve, though single readings scatter.
Select the matching outcome among True (active), False (inactive)

Take a look at these entries with their results.
# SMILES_STRUCTURE, ANSWER_LABEL
data = [
    ("COc1ccc(-c2nc3cnc(Oc4cccc(Cl)c4)nc3n(C3CC3)c2=O)cc1", "False"),
    ("O=c1c(-c2cccs2)nc2cnc(N3CCOCC3)nc2n1-c1ccccc1", "False"),
    ("COc1ccc(-n2c(=O)c(C)nc3cnc(OC)nc32)cc1", "False"),
    ("Cc1noc(C)c1-c1cncnc1NCCN1CCOCC1", "False"),
    ("CN(C)C(=O)c1ccc(-c2cc(-n3ccnc3)ncn2)cc1", "True"),
]

Switching to the query record.
(Q) Hi, sorry to bother you, what did the test record for O=c1cnc2cnc(N3CCOCC3)nc2n1CCc1ccccc1 ?
(A) True

====

test system: CP237; experiment: qHTS profiling for inhibitors of Plasmodium falciparum proliferation (AID 504749); further: nearly all actives have a fitted effect of over 60% in size; details: P. falciparum in erythrocytes, SYBR Green DNA, 72 h; series mostly up to 28.7 µM
Inconclusive results are not listed. Calls of active or inactive are those of the source. The call rests on the fitted dose curve; in most records, active means well fitted inhibition curve with a large enough effect; inconclusive means small, poorly fitted or top-dose-only effect; inactive means flat fitted curve, though single readings scatter.
Select the matching outcome among active, inactive

Take a look at these entries with their results.
# COMPOUND, ANSWER_LABEL
records = [
    ("CN=C(N)NCCCC(N)C(=O)O (centres undefined)", "inactive"),
    ("C=C1/C(=C\\C=C2/CCC[C@]3(C)[C@@H]([C@H](C)CCCC(C)(C)O)CC[C@@H]23)C[C@@H](O)C[C@@H]1O", "inactive"),
    ("C[C@@]12C(=O)OC(=O)[C@]1(C)[C@H]1CC[C@@H]2O1", "active"),
]

Switching to the query record.
(Q) Hi, sorry to bother you, what did the test record for COc1cc2c(cc1OC)C(c1ccccc1)CN(C)CC2 (centres undefined) ?
(A) active

====

experiment: qHTS Assay for Lipid Storage Modulators (AID 1519); details: Drosophila S3 cells, BODIPY lipid droplet/cell ratio, laser cytometry; measured here: lipid channel max response; cells loaded with oleic acid
Records with an inconclusive call do not appear.
Classify: fulfilled when max response is strictly less than 10%; not fulfilled when max response is not.

Take a look at these entries with their results.
# MOLECULE, ANSWER_LABEL
rows = [
    ("CC(C)NC(=O)N1CC[C@@]2(CCCN(C(=O)c3csnn3)C2)C1", "fulfilled"),
    ("CCNc1ncc2nc(-c3cccs3)c(=O)n(C)c2n1", "fulfilled"),
]

(Q) For CCNc1ncc2ncc(=O)n(Cc3cccs3)c2n1 , is the recorded max response below the cut-off of 10%?
(A) not fulfilled

(Q) For COCCNc1ncnc2ccc(-c3cccc(OC)c3)cc12 , is the recorded max response below the cut-off of 10%?
(A) fulfilled

(Q) For NC(=O)C1=CN(C2OC(COP(=O)(O)OP(=O)(O)OC[C@H]3O[C@@H](n4cnc5c(N)ncnc54)[C@H](OP(=O)(O)O)[C@H]3O)C(O)C2O)C=CC1 (stereo partly specified) , is the recorded max response below the cut-off of 10%?
(A) fulfilled

(Q) For c1nc(NC2CCNCC2)c2cc(-c3ccoc3)ccc2n1 , is the recorded max response below the cut-off of 10%?
(A) not fulfilled

(Q) For COc1cc(O)c2c(=O)cc(C)oc2c1CC=C(C)C , is the recorded max response below the cut-off of 10%?
(A) not fulfilled

(Q) For CS(=O)(=O)Nc1cccc(-c2ccc3ncnc(NC4CCNCC4)c3c2)c1 , is the recorded max response below the cut-off of 10%?
(A) not fulfilled

(Q) For COc1cccc(-c2cc(NCc3cccs3)ncn2)c1 , is the recorded max response below the cut-off of 10%?
(A) not fulfilled

(Q) For COc1ccc(-n2c(=O)c(C)nc3cnc(OC)nc32)cc1 , is the recorded max response below the cut-off of 10%?
(A) not fulfilled

====

experiment: U-118MG Cancer Cell Toxicity qHTS against the NCATS CANVASS Library (AID 1347351); conditions: U-118MG viability, CellTiter-Glo luminescence, 72 h; series mostly up to 38.3 µM; further: potency means the concentration at half of the fitted maximal effect
Results filed as inconclusive are left out. Calls of active or inactive are those of the source. Calls come from the whole dose curve; as a rule, active = well fitted cell-killing curve with a large enough effect; inconclusive = small, poorly fitted or top-dose-only effect; inactive = flat fitted curve, though single readings scatter. Peptide text beside a SMILES is read from it. * marks the point of attachment. Hexanoyl = CCCCCC(=O)*
METRIC: Potency

Check out these entries, answers already filled in.
# COMPOUND, READING
rows = [
    ("COC(=O)c1cccc2oc(-c3cccc4oc(-c5c(C)cccc5O)nc34)nc12", "inactive"),
    ("CCCCCC(=O)N[C@@H](CC(C)C)C(=O)N[C@H](C=O)CCC(=O)O (Hexanoyl-Leu-Glu-aldehyde)", "inactive"),
    ("COc1cc2c(c(O)c1O)C(=O)c1c(coc1C)C2=O", "21.1 µM (active)"),
    ("C/C=C/c1cc2c(c(=O)o1)C(=O)[C@@H](O)[C@H](C)O2", "inactive"),
    ("CO[C@H]1[C@@H](OC(=O)/C(C)=C\\[C@@H]2O[C@@H]2[C@H]2O[C@H]2C)[C@H](O)[C@H](OCC23C[C@@H]4[C@H](C)CC[C@H]4C4(C=O)CC2C=C(C(C)C)C34C(=O)O)O[C@@H]1C (stereo partly drawn)", "inactive"),
]

(Q) I am curious: what Potency value has been reported for Cc1occ2c1C(=O)c1c(cc(O)c(O)c1O)C2=O ?
(A) 13.3 µM (active)

(Q) I am curious: what Potency value has been reported for CCC(C)=C1OC(=O)[C@H](C)[C@H](O)[C@H](Cc2cccnc2)NC(=O)C(NC(=O)c2ncccc2O)C(C)OC1=O (stereo partly drawn) ?
(A) inactive

(Q) I am curious: what Potency value has been reported for C=C[C@]1(C)CC[C@@H]([C@H](C)C(=O)/C=C/C(C)(C)O)O1 ?
(A) inactive

====

assay: Cell Viability qHTS for small molecule stabilizers of the endoplasmic reticulum resident proteome (AID 1508629); conditions: cell viability counter-screen, 100 nM thapsigargin for final 4 h;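 further: human SH-SY5Y neuroblastoma cells carrying the GLuc-SERCaMP reporter; compound exposure about 46 h in total before the viability read; on the % scale 0 is the no-effect control and ±100 the full control effect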
Results filed as inconclusive are left out.
METRIC: max response (%)
Reply numerically in %, unit not repeated.

# SMILES_STRUCTURE, max response / %
rows = [
    ("Cc1nc2cnc(N3CCNCC3)nc2n(Cc2cccs2)c1=O", 3.08),
]

(Q) I am curious: what max response value has been reported for OC[C@H]1NC[C@H](O)[C@@H](O)[C@@H]1O ?
(A) 6.89

(Q) I am curious: what max response value has been reported for OC[C@H]1NC[C@@H](O)[C@@H](O)[C@@H]1O ?
(A) 8.42

(Q) I am curious: what max response value has been reported for COCCn1c(=O)c(-c2cn(C)c3ccccc23)nc2cnc(N3CCNCC3)nc21 ?
(A) -7.1

(Q) I am curious: what max response value has been reported for c1ccc(-c2cccc(N3CC4(CCNCC4)C3)c2)cc1 ?
(A) -13.3

(Q) I am curious: what max response value has been reported for COc1ccc(NC(=O)N2CCC3(CC2)CCN(S(=O)(=O)c2ccccc2)CC3)cc1 ?
(A) -18.8

(Q) I am curious: what max response value has been reported for COc1ccc(-n2c(=O)cnc3cnc(N4CCNCC4)nc32)cc1 ?
(A) 4.18

(Q) I am curious: what max response value has been reported for O=c1c(CCc2ccccc2)nc2cnc(N3CCNCC3)nc2n1CCc1ccccc1 ?
(A) -5.58

(Q) I am curious: what max response value has been reported for COc1ccc(-n2c(=O)c(-c3ccccc3)nc3cnc(N4CCNCC4)nc32)cc1 ?
(A) 0.755

(Q) I am curious: what max response value has been reported for Cc1ccc(C(=O)N/C(=C\c2cccs2)c2nc3ccccc3[nH]2)cc1 ?
(A) 8.84

(Q) I am curious: what max response value has been reported for COc1ccc(-n2c(=O)c(-c3ccccc3)nc3cnc(N4CCN(C)CC4)nc32)cc1 ?
(A) 12.9

====

Assay: qHTS drug screen for cell cycle checkpoint inhibitors in PARPi-resistant BRCA-mutant ovarian cancer cell lines. (AID 1963452)
Details: PEO1/OlaR viability, CellTiter-Glo luminescence, 96 h; stronger effect = lower value
From the text: Women's Malignancies Branch, Center for Cancer Research (CCR), National Cancer Institute (NCI), National Institutes of Health (NIH), Bethesda, MD Poly (ADP-ribose) polymerase inhibitors (PARPis) have changed the treatment paradigm in breast cancer gene (BRCA) - mutant high-grade serous ovarian carcinoma (HGSC). […] 6; Detection; Luminescence, PHERAstar (BMG Labtech) plate reader. […] 6. Luminescence readings were taken using PHERAstar (BMG Labtech). […]
METRIC: Z-AUC
The answer should be a number; do not append a unit.

# MOLECULE, Z-AUC
rows = [
    ("COc1cc(C(=O)NC(N)=Nc2ccc(C)c(NC(=O)c3ccc(-c4ccccc4)cc3)c2)cc(OC)c1OC", 0.647),
    ("Cn1cc(-c2nc(N[C@@H]3CCCC[C@@H]3N)c(F)c3c2C(=O)NC3)cn1", 0.172),
    ("Cc1ccc(-c2ccc(C)cn2)nc1", 1.52),
    ("C=CC(=O)Nc1cc(N2CCN(CC)CC2)ccc1Nc1cc(N(C)C(=O)Nc2c(Cl)c(OC)cc(OC)c2Cl)ncn1", 1.02),
]

Next molecule, please.
(Q) I am curious: what Z-AUC value has been reported for CCS(=O)(=O)c1ccc2oc(-c3ccc4ccccc4c3)nc2c1 ?
(A) -0.19

Data provenance: PubChem BioAssay (NCATS)
